experiment: Quantitative High-Throughput drug screen in 47 multiple myeloma cell lines against the NCATS MIPE library collection: JJN3_DSMZ cell viability assay (AID 1918966; further: potency means the concentration at half of the fitted maximal effect; nearly all actives have a fitted effect of over 50% in size); conditions: JJN3 myeloma cells viability, CellTiter-Glo ATP, 48 h; series mostly up to 45.8 µM
Records with an inconclusive call do not appear. Activity calls are given as the source filed them. The call rests on the fitted dose curve; in most records, active means well fitted cell-killing curve with a large enough effect; inconclusive means small, poorly fitted or top-dose-only effect, or effect the other way; inactive means no such curve, though single readings can be large or run the other way.
Experimental endpoint: Potency

>>> df
                                 mol_smiles  experimental_endpoint               value
0  O=C1NC(=O)[C@@H](c2cn3c4c(cccc24)CCC3)[C@H]1c1c[nH]c2ccccc12                Potency    16.6 µM (active)
1  CC(=O)ON=C1C(c2c(O)[nH]c3cc(Br)ccc23)=Nc2ccccc21                Potency    20.9 µM (active)
2  CS(=O)(=O)N1CCc2c(-c3cnc(N)nc3)nc(N3CCOCC3)nc21                Potency    0.59 µM (active)
3  CN1CCCN(C(=O)c2cccc(-c3ccc(C=C4C(=O)Nc5ccc(Cl)cc54)o3)c2)CC1                Potency    18.7 µM (active)
4  CNC(=O)Nc1ccc(-c2nc(N3CC4CCC(C3)O4)c3cnn(C4CCC5(CC4)OCCO5)c3n2)cc1                Potency  0.0118 µM (active)
